Reported pIC50 values follow for various molecules
# Measurement target: Endothelial PAS domain-containing protein 1 (Homo sapiens)
# Run description: HIF-2a and HIF-1a reporter inhibition panel, dose response, selectivity assay for HIF-2a inhibitor project, cell-based, luminescence (AID 651581)
# Measurement setup: HIF-2a PANC, run 1
Scale: pIC50 equals -log10([C]), with [C] in mol/L.

Sample answers from the record:
• CC(=O)N(C(C)=O)c1ccc(Oc2ccc(Oc3ccc(N(C(C)=O)C(C)=O)cc3)cc2)cc1 = 5.73
• COc1ccc(-c2cnc3c(NC=O)cc(-c4cccc(NS(C)(=O)=O)c4)cn23)cc1OC = 5.40
• c1c2c(cc3sc(N4CCOCC4)nc13)OCCO2 = 4.70
• CC(C)COc1ccc(C(=S)N2CCCC2)cc1 = 4.87
• O=C1C=C(c2ccc(Cl)cc2)C(=O)N1Nc1ccccc1 = 4.52
• O=C(O)c1ccc2nc(-c3ccccc3)sc2c1 = 4.90

Proceed to the following item.
Prompt: If you can, please state the reported pIC50 value of `Cc1nc(SCc2cccc(C(=O)O)c2)nc2c1CCCC2` .
Completion: 5.15

Just for reference, PubChem BioAssay AID651581 is where these values come from.
